molecular target: Alpha-2B adrenergic receptor (Homo sapiens); test: Inhibition of Adrenergic alpha2B at compound concentration of 10.0 uM in the Eurofins-Panlabs radioligand binding assay (Eurofins_assay_203710); design: ligand concentration 2.5 nM, non-specific ligand with concentration 10 uM Prazosin, incubation time 60 min, incubation temperature 25 C
Sequence (P18089 whole entry): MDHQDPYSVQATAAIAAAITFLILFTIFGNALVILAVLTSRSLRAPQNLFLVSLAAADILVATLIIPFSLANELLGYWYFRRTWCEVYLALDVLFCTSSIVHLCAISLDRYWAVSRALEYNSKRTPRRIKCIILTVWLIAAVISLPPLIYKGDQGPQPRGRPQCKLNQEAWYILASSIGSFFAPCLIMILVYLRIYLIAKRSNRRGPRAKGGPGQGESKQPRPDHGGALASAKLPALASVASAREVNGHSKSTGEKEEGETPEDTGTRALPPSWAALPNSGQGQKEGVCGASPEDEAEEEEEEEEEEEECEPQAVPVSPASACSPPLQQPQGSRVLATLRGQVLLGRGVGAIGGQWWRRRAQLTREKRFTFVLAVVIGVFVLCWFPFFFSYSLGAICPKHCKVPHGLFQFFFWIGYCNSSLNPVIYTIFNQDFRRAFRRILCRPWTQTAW
measured.quantity: pIC50
Entry type: numeric. Quantity: pIC50, the -log10 of concentration in molar units.

Param request: pIC50 | system Alpha-2B adrenergic receptor (Homo sapiens) | item CC(C)(O)c1cncc(-c2nc3ccc(F)cc3n2C2CC2)c1 5.33

###

target: 5-hydroxytryptamine receptor 2B (Homo sapiens); experiment: GPCRScan assay: inhibition of 5-HT2B; design: radioligand conc. used [nm] 1.0 – 2.0, parental cells stable HEK
measured.quantity: Ki

> print(dat)
                                   compound   result
1  FC(F)(F)c1ccc2c(c1)nc(-c1cccnc1)n2C1CC1 [MSD-CYP11B2-Negative-control]  1.07 µM

// moving on: another record for Ki
Find the measured Ki of CC(C)(O)c1cncc(-c2nc3ccc(F)cc3n2C2CC2)c1 and report it. 1.54 µM

###

target: Beta-1 adrenergic receptor (Homo sapiens, UniProt P08588); experiment: Panlabs assay (ADRB1); design: compound concentration 10 uM
Sequence (P08588 whole entry): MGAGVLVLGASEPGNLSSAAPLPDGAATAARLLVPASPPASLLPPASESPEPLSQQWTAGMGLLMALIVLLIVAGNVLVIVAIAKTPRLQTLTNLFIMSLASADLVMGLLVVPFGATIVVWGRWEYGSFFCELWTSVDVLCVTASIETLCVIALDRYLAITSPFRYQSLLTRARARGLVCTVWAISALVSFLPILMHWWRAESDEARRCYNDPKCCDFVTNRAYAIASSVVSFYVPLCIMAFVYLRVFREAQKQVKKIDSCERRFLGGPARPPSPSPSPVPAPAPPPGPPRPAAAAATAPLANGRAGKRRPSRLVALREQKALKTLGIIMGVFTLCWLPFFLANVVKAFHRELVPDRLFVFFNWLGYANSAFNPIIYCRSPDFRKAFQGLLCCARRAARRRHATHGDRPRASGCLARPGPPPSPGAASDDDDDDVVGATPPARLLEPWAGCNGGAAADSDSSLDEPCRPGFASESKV
measured.quantity: IC50

Check the records and state IC50 for CC(C)(O)c1cncc(-c2nc3ccc(F)cc3n2C2CC2)c1 [MSD-CYP11B2] 9.62 µM

###

biological target: Alpha-2B adrenergic receptor (Homo sapiens); test: GPCRScan assay: inhibition of Alpha2B; parameters: radioligand conc. used [nm] 1.5 – 2.0, parental cells HEKT
measured.quantity: Ki
The reply must contain the numeric value and, after it, the unit.

Item CC(C)(O)c1cncc(-c2nc3ccc(F)cc3n2C2CC2)c1 : provide Ki 1440 nM

###

Target: Alpha-2A adrenergic receptor (Homo sapiens)
Sequence (P08913 whole entry): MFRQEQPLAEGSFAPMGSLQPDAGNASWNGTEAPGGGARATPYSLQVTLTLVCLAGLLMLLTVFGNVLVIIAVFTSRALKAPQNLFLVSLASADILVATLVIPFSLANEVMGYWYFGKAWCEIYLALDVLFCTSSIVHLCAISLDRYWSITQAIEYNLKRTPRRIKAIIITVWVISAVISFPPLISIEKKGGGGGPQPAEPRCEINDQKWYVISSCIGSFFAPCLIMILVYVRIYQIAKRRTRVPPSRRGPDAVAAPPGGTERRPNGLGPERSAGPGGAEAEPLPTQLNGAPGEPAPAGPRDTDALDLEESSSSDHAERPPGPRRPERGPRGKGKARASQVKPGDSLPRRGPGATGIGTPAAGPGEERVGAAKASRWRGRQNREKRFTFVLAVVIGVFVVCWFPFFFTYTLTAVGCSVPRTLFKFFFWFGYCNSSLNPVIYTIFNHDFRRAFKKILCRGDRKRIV
measured.quantity: Ki (nM)
Express it in nM; write the number only.

Give the reported Ki for this compound. CC(C)(O)c1cncc(-c2nc3ccc(F)cc3n2C2CC2)c1 [MSD-CYP11B2] 2610

###

molecular target: 5-hydroxytryptamine receptor 6 (Homo sapiens); test: GPCRScan assay: inhibition of 5-HT6; set-up: radioligand conc. used [nm] 2.0 – 4.0, parental cells stable HEK
Sequence (P50406 whole entry): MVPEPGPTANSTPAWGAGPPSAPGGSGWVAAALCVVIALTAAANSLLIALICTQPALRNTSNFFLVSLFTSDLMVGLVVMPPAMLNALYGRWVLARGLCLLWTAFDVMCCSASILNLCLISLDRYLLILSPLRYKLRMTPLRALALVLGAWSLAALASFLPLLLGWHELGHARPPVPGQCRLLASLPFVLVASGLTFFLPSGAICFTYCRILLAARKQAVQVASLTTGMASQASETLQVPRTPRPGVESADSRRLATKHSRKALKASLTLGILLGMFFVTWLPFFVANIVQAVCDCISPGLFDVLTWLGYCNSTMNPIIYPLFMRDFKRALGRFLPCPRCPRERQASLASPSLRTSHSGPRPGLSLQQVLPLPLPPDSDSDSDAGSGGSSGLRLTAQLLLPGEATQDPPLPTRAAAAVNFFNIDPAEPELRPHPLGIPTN
measured.quantity: pKi
API: returns pKi as number; meaning -log10 of concentration in mol/L.

Tell me its pKi given FC(F)(F)c1ccc2c(c1)nc(-c1cccnc1)n2C1CC1 [MSD-CYP11B2-Negative-control] as the entry. 5.51

###

biological target: Beta-1 adrenergic receptor (Homo sapiens); assay: Inhibition of Adrenergic beta1 at compound concentration of 10.0 uM in the Eurofins-Panlabs radioligand binding assay (Eurofins_assay_204010); parameters: ligand concentration 0.03 nM, non-specific ligand with concentration 100 uM S(-)-Propranolol, incubation time 2 h, incubation temperature 25 C
measured.quantity: Ki (µM)
Express it in µM; write the number only.

Tell me Ki reported for CC(C)(O)c1cncc(-c2nc3ccc(F)cc3n2C2CC2)c1 5.55

###

biological target: UniProt:P18825
Sequence (P18825 whole entry): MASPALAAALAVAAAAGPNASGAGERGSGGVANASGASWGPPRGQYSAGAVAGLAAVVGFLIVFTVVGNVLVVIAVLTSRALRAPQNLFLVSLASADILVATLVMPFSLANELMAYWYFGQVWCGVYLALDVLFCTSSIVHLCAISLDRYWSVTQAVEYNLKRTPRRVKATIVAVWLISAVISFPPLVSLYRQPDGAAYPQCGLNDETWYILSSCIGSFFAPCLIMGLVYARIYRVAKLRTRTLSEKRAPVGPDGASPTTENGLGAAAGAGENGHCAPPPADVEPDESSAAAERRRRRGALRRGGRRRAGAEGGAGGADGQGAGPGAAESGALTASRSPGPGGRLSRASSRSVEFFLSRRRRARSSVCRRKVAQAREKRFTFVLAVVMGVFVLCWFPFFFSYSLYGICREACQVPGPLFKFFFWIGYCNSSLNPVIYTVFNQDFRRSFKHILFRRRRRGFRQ
measured.quantity: Ki (nM)
Give the value in nM but do not write nM after it.

Provide UniProt:P18825 Ki reading for CC(C)(O)c1cncc(-c2nc3ccc(F)cc3n2C2CC2)c1 . 626

###

target: 5-hydroxytryptamine receptor 2B (Homo sapiens, UniProt P41595); assay: Inhibition of Serotonin (5-Hydroxytryptamine) 5-HT2B at compound concentration of 10.0 uM in the Eurofins-Panlabs radioligand binding assay (Eurofins_assay_271700); design: ligand concentration 1.2 nM, non-specific ligand with concentration 10 uM Serotonin (5-HT), incubation time 60 min, incubation temperature 37 C
Sequence (P41595 whole entry): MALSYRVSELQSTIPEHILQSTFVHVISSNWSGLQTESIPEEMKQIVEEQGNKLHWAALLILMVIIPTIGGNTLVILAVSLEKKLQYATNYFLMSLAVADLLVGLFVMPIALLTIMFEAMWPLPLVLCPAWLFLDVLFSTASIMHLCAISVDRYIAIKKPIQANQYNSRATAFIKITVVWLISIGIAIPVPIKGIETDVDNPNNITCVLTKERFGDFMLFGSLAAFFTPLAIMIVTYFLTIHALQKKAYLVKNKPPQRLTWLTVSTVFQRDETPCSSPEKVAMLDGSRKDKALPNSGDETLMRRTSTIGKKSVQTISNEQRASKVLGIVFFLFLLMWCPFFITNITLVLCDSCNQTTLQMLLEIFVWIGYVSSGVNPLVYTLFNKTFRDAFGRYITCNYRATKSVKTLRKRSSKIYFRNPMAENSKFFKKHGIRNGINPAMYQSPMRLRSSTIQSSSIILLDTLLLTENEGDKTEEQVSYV
measured.quantity: pKi
pKi is a log-scale quantity: -log10 of the concentration expressed in molar.

Return the recorded pKi value; entry: CC(C)(O)c1cncc(-c2nc3ccc(F)cc3n2C2CC2)c1 [MSD-CYP11B2] 5.47
